Biological target: cPLA2 (Homo sapiens)
Sequence (P47712 1-749): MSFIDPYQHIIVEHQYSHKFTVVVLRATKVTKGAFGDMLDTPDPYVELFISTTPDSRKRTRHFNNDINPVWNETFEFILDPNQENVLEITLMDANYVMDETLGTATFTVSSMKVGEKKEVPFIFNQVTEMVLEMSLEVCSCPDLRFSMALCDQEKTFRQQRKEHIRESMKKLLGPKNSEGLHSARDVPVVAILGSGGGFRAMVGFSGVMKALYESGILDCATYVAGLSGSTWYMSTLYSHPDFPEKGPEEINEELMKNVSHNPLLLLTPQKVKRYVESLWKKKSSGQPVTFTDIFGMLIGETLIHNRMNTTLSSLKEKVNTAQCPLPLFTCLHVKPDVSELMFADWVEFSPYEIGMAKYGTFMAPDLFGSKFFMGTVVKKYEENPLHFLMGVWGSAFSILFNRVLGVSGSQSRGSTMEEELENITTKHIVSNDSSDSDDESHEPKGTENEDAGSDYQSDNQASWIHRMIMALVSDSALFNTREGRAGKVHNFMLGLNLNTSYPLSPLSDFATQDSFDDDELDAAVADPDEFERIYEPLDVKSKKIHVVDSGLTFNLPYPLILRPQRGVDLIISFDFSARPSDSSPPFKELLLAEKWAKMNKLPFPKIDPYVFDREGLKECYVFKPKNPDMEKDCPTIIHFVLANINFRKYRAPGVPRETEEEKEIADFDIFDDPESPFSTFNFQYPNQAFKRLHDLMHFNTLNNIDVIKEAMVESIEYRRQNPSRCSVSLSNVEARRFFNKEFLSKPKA
Assay: cPLA2 inhibitory activity
Type: biochemical
Details: 0.25 h; Table 10; same assay
quantity.kind: IC60

For orientation, consider the following solved cases.
molecule="O=C1NC(=O)C(Cc2ccc(C(=O)NCC3CC(SC(c4ccccc4)(c4ccccc4)c4ccccc4)CN3C(=O)c3ccccc3C(=O)c3ccc(F)cc3F)cc2)S1 (stereo not shown)" quantity_kind=IC60 recorded_value="1.2 nM"
molecule="O=C(C=Cc1ccc(C=C2SC(=O)NC2=O)cc1)NCC1CC(SCc2c(-c3ccccc3)cccc2-c2ccccc2)CN1C(=O)c1ccccc1C(=O)c1ccc(F)cc1F (stereo not shown)" quantity_kind=IC60 recorded_value="5.6 nM"

Now look at this one.
Qu. Endpoint output: IC60 of O=C(C=Cc1ccc(CC2SC(=O)NC2=O)cc1)NCC1CC(SC(c2ccccc2)(c2ccccc2)c2ccccc2)CN1C(=O)c1ccccc1C(=O)c1ccc(F)cc1F (stereo not shown) . Value?
Ans. 1.4 nM

###

Recorded IC50 values (cPLA2 (Homo sapiens)) are given below.
Field format: number, assumed nM, no unit text.

For orientation, consider the following solved cases.
compound="CC(C)CN(C1CC(CNC(=O)c2ccc(C=C3SC(=O)NC3=O)cc2)N(C(=O)c2c(F)cccc2C(=O)c2ccc(F)cc2F)C1)C(c1ccccc1)c1ccccc1 (stereo not shown)" recorded_value=5.1
compound=CC(C)CN(C(c1ccccc1)c1ccccc1)[C@@H]1C[C@@H](CNC(=O)c2ccc(/C=C3\SC(=O)NC3=O)cc2)N(C(=O)c2ccccc2C(=O)c2ccccc2)C1 recorded_value=33
compound="CC(C)CN(C1CC(CNC(=O)c2ccc(C=C3SC(=O)NC3=O)cc2)N(C(=O)c2ccccc2C(=O)c2c(F)cccc2F)C1)C(c1ccccc1)c1ccccc1 (stereo not shown)" recorded_value=7.4

Now look at this one.
Qu. Form: Entry = CC(C)CN(C1CC(CNC(=O)c2ccc(C=C3SC(=O)NC3=O)cc2)N(C(=O)c2ccc(F)cc2C(=O)c2ccc(F)cc2F)C1)C(c1ccccc1)c1ccccc1 (stereo not shown) | System = cPLA2 (Homo sapiens) | IC50 = ____
Ans. 5

###

Biological target: cPLA2 (Homo sapiens)
Sequence (P47712 1-749): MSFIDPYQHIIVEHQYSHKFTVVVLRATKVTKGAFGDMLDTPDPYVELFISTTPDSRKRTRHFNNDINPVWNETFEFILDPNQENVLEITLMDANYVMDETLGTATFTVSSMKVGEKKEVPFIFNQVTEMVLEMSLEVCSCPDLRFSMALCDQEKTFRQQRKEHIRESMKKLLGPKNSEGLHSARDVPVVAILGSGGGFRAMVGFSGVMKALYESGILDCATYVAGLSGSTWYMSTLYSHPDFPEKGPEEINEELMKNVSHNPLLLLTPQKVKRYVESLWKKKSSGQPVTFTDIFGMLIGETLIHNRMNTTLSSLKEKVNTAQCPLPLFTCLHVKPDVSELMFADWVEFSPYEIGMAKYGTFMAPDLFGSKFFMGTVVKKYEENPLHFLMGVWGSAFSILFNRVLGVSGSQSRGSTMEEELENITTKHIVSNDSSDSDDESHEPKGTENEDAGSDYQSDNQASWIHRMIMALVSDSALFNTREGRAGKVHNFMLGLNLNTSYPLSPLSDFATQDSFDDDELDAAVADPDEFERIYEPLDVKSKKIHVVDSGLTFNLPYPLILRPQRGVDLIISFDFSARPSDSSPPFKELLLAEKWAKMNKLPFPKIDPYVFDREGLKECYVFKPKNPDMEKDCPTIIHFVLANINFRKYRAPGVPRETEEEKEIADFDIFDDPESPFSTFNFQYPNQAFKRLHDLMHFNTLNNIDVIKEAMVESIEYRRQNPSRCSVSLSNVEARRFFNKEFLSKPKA
Experiment: cPLA2 inhibitory activity
Assay type: biochemical
Conditions: 0.25 h; Table 10; same assay
Recorded IC60 for the following compounds
Answer by giving the amount and then stating its unit.

compound="O=C(C=Cc1ccc(C=C2SC(=O)NC2=O)cc1)NCC1CC(SC(c2ccc(F)cc2)(c2ccc(F)cc2)c2ccc(F)cc2)CN1C(=O)c1ccccc1C(=O)c1ccc(F)cc1F (stereo not shown) [Compound B-14]" recorded_value="1.2 nM"

Qu. Endpoint output: IC60 of O=C1NC(=O)/C(=C/c2ccc(/C=C/CNC(=O)[C@@H]3C[C@@H](SC(c4ccccc4)(c4ccccc4)c4ccccc4)CN3C(=O)c3ccccc3C(=O)c3ccc(F)cc3F)cc2)S1 [Compound C-3] . Value?
Ans. 5.4 nM

Qu. Endpoint output: IC60 of O=C(C=Cc1ccc(C=C2SC(=O)NC2=O)cc1)NCC1CC(SC(c2ccc(Cl)cc2)(c2ccc(Cl)cc2)c2ccc(Cl)cc2)CN1C(=O)c1ccccc1C(=O)c1ccc(F)cc1F (stereo not shown) [Compound B-17] . Value?
Ans. 0.63 nM

Qu. Endpoint output: IC60 of O=C(C=Cc1ccc(C=C2SC(=O)NC2=O)cc1)NCC1CC(SC(c2ccccc2)(c2ccccc2)c2ccc(F)cc2)CN1C(=O)c1ccccc1C(=O)c1ccc(F)cc1F (stereo not shown) [Compound B-25] . Value?
Ans. 0.43 nM

###

Recorded IC60 for the following compounds
Target: cPLA2 (Homo sapiens, UniProt P47712)
Experiment: cPLA2 inhibitory activity
Type: biochemical
Details: 0.25 h; Table 10; same assay
Field format: number, assumed nM, no unit text.

For orientation, consider the following solved cases.
compound="Cc1ccccc1C(SC1CC(CNC(=O)C=Cc2ccc(C=C3SC(=O)NC3=O)cc2)N(C(=O)c2ccccc2C(=O)c2ccc(F)cc2F)C1)(c1ccccc1)c1ccccc1 (centres unmarked)" tested_target="cPLA2 (Homo sapiens, UniProt P47712)" recorded_value=1.2
compound="COc1ccc(C(SC2CC(CNC(=O)C=Cc3ccc(C=C4SC(=O)NC4=O)cc3)N(C(=O)c3ccccc3C(=O)c3ccc(F)cc3F)C2)(c2ccccc2)c2ccccc2)cc1 (centres unmarked)" tested_target="cPLA2 (Homo sapiens, UniProt P47712)" recorded_value=1.2
compound="CC(C)c1cccc(C(SC2CC(CNC(=O)C=Cc3ccc(C=C4SC(=O)NC4=O)cc3)N(C(=O)c3ccccc3C(=O)c3ccc(F)cc3F)C2)(c2ccccc2)c2ccccc2)c1 (centres unmarked)" tested_target="cPLA2 (Homo sapiens, UniProt P47712)" recorded_value=0.26
compound="Cc1cc(C)cc(C(SC2CC(CNC(=O)C=Cc3ccc(C=C4SC(=O)NC4=O)cc3)N(C(=O)c3ccccc3C(=O)c3ccc(F)cc3F)C2)(c2ccccc2)c2ccccc2)c1 (centres unmarked)" tested_target="cPLA2 (Homo sapiens, UniProt P47712)" recorded_value=0.37

Qu. Endpoint output: IC60 of O=C(C=Cc1ccc(C=C2SC(=O)NC2=O)cc1)NCC1CC(SC(c2ccccc2)(c2ccccc2)c2ccccc2)CN1C(=O)c1ccccc1C(=O)c1ccc(F)cc1F (centres unmarked) . Value?
Ans. 0.6

###

Target: cPLA2 (Homo sapiens)
Test: cPLA2 inhibitory activity
Assay type: biochemical
Details: 0.25 h; Table 10; same assay
Recorded IC60 for the following compounds
Field format: number, assumed nM, no unit text.

compound="O=C(/C=C/c1ccc(/C=C2\\SC(=O)NC2=O)cc1)NC[C@@H]1C[C@@H](Oc2ccccc2C(c2ccccc2)c2ccccc2)CN1C(=O)c1ccccc1C(=O)c1ccc(F)cc1F [Compound C-2]" unit_spec=nM recorded_value=3.8

Qu. Form: Entry = O=C1NC(=O)/C(=C/c2ccc(C(=O)NC[C@@H]3C[C@@H](OCc4ccccc4-c4ccccc4)CN3C(=O)c3ccccc3C(=O)c3ccc(F)cc3F)s2)S1 [Compound C-1] | System = cPLA2 (Homo sapiens) | IC60 = ____
Ans. 24

Qu. Form: Entry = Cc1cccc(C(SC2CC(CNC(=O)C=Cc3ccc(C=C4SC(=O)NC4=O)cc3)N(C(=O)c3ccccc3C(=O)c3ccc(F)cc3F)C2)(c2ccccc2)c2ccccc2)c1 (stereo not shown) [Compound B-16] | System = cPLA2 (Homo sapiens) | IC60 = ____
Ans. 1

Qu. Form: Entry = COc1ccc(C(SC2CC(CNC(=O)C=Cc3ccc(C=C4SC(=O)NC4=O)cc3)N(C(=O)c3ccccc3C(=O)c3ccc(F)cc3F)C2)(c2ccccc2)c2ccc(OC)cc2)cc1 (stereo not shown) [Compound B-12] | System = cPLA2 (Homo sapiens) | IC60 = ____
Ans. 2

Reference source for all entries: patent US6924301B1
